- testDescription: TNFa signaling inhibitors in B cell line, dose response, counter-screen (AID 1259334);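 further: cells stimulated with TNFa after compound preincubation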
- measurementConditions: B cell line, TNFa signaling counterscreen reporter; at 1.1 µM; stronger effect = lower value
parameter: max activity (%)
Answers are plain numbers, in %.

The examples below pair each entry with its known result.
* COc1ccc2c3c([nH]c2c1)[C@H](CO)N(C(=O)Nc1cccc(F)c1)CC31CCN(S(=O)(=O)c2cccc(C)c2)CC1 | 21.6
* NS(=O)(=O)c1nn2cc(-c3ccccc3)nc2s1 | 17.7
* O=C1C(Br)=C(c2ccccc2)C(c2ccccc2)=C1c1ccccc1 | -5.75
* C[C@H](CO)N1C[C@H](C)[C@H](CN(C)CC2CCCCC2)Oc2ccc(NC(=O)Nc3ccc(C(F)(F)F)cc3)cc2C1=O | 8.34
* Cc1noc(C)c1NC(=O)N(C)C[C@@H]1OCCCC[C@@H](C)Oc2ccc(NC(=O)Nc3ccc(C(F)(F)F)cc3)cc2C(=O)N([C@H](C)CO)C[C@H]1C | 17

Give me max activity for each of these compounds, listed below.
1. Cc1ccc(-c2cc(C(=O)N3CC(C)OC(C)C3)c3ccccc3n2)o1 (centres undefined)
2. COc1ccc2c(c1)c1ncn(Cc3ccccn3)c(=O)c1n2C
3. N#C[C@H]1[C@@H](c2ccc(C#CC3CCCCC3)cc2)[C@@H](CO)N1C(=O)Nc1ccc(F)cc1

1. 10.3
2. -8.21
3. 10.8

Answer with the recorded max activity for the compound listed here: `O=C(Nc1ccc([N+](=O)[O-])cc1Cl)c1cc(Cl)ccc1O`
14.6

* * *

- System: B cell line, TNFa signaling counterscreen reporter
- testDescription: TNFa signaling inhibitors in B cell line, dose response, counter-screen (AID 1259334);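 further: cells stimulated with TNFa after compound preincubation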
The source made the active and inactive calls. No stated cut-off is given here; in the data, active means AC50 below about 11 µM.
Task for the reader: assign each of the following compounds its reported AC50.

Past entries and their recorded results:
• O=C(Nc1ccc(C(F)(F)F)cc1)Nc1ccc2c(c1)[C@H]1C[C@@H](CC(=O)N3CCc4ccccc4C3)O[C@H](CO)[C@H]1O2 = 10.7 µM
• CC12CCC3C(CCC4(O)CC(O)CCC34C=O)C1(O)CCC2C1=CC(=O)OC1 (centres undefined) = 3.75 µM
• CC(=O)OCC12CC(OC(=O)CC(C)C)C(C)=CC1OC1C(O)C(OC(C)=O)C2(C)C12CO2 (centres undefined) = 0.00346 µM
• Cc1[nH]c2ccccc2c1C(c1ccccn1)N1CCC(C(N)=O)CC1 (centres undefined) = 6 µM
• Cc1ccc(-c2cc(C(=O)N(C)CC(=O)Nc3ccccc3Br)c3ccccc3n2)o1 = 11.1 µM
• CC1CNCCN1S(=O)(=O)c1cccc2cnccc12 (centres undefined) = 7.79 µM

Each of the following entries comes with a recorded value; kindly state AC50 for each.
1. O=S(=O)(/C(=C\c1ccc(C(F)(F)F)cc1)c1nc2ccccc2[nH]1)c1ccccc1
2. c1ccc(-c2nc(-c3ccccn3)no2)cc1
3. CCC(=O)O[C@]1(C(=O)CCl)[C@@H](C)C[C@H]2[C@@H]3CCC4=CC(=O)C=C[C@]4(C)[C@@]3(F)[C@@H](O)C[C@@]21C

0.497 µM
3.9 µM
> 20 µM (inactive)

Provide reported AC50 for each item, in the same order as listed.
1. N#C[C@H]1N[C@H](CO)[C@H]1c1ccc(C#CC2CCCC2)cc1
2. Cc1ccc(S(=O)(=O)N[C@@H](Cc2ccccc2)C(=O)CCl)cc1
3. Cc1cc(C(=O)COC(=O)CNC(=O)c2ccccc2)c(C)n1CC1CCCO1 (centres undefined)
4. C[C@H]1CN([C@@H](C)CO)C(=O)c2c(c3ccccc3n2C)-c2ccccc2CO[C@@H]1CN(C)Cc1cccc(C(F)(F)F)c1
5. COC(=O)c1ccccc1-c1c2ccc(=N)cc-2oc2cc(N)ccc12
6. C=C1C(=O)C23C(O)C1CCC2C12CCCC(C)(COC(C)=O)C1C(O)C3(O)OC2 (centres undefined)

1. 8.01 µM
2. 1.2 µM
3. 5.61 µM
4. 8.42 µM
5. 4.57 µM
6. 0.507 µM

* * *

- testDescription: TNFa signaling inhibitors in B cell line, dose response, counter-screen (AID 1259334);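 further: cells stimulated with TNFa after compound preincubation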
- measurementConditions: B cell line, TNFa signaling counterscreen reporter; at 1.1 µM; stronger effect = lower value
Hi! Just check whether max activity is below 20%. Below gives satisfied, equal or above gives not satisfied.

- N=C(N)c1ccc(OCCCCCOc2ccc(C(=N)N)cc2)cc1: satisfied
- COc1ccccc1C(=O)Nc1ccc2c(c1)C(=O)N(C)[C@H]1CC[C@H](CC(=O)Nc3cccc(C(C)C)c3)O[C@@H]1CO2: not satisfied

# TODO verify max activity < 20% strictly for this molecule: `COc1ccc(-c2cnc3c(c2)C(=O)N([C@H](C)CO)C[C@@H](C)[C@@H](CN(C)C(=O)Nc2c(C)noc2C)O3)cc1`
not satisfied

Dear reviewer, please state whether `CCCNC(=O)N1[C@H](CO)[C@H](c2ccc(-c3cccc(OC)c3)cc2)[C@@H]1C#N` has max activity strictly beneath 20%.
satisfied

For O=C(NCc1ccccn1)C1CCCN(S(=O)(=O)c2ccccc2)C1 (stereo not given) , is the recorded max activity below the cut-off of 20%?
satisfied

* * *

Answer each item with its documented AC50.
- Tested on: B cell line, TNFa signaling counterscreen reporter
- testDescription: TNFa signaling inhibitors in B cell line, dose response, counter-screen (AID 1259334);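 further: cells stimulated with TNFa after compound preincubation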

Please supply AC50 for each of the following items, keeping them in order.
1. N#C[C@H]1[C@H](c2ccc(C#Cc3ccccc3F)cc2)[C@@H](CO)N1C(=O)c1cccnc1
2. CN(C)c1ccc(C=c2c3cc(O)ccc3n3c2cc(-c2ccccc2)[n+]3C)cc1

["9370 nM", "2460 nM"]

Take each entry in turn and give its AC50.
1. CCS(=O)(=O)N1[C@H](CO)[C@@H](c2ccc(C#Cc3ccccc3F)cc2)[C@@H]1C#N
2. CC(=O)OC1C(=O)OCC23CCC4(C)OC4C2OC2CC(OC(=O)C=CC=CC(=O)OCCC1C)C3(C)C21CO1 (stereo not given)
3. COc1ccc(/C=C2/CCC(CN3CCOCC3)C2=O)cc1 (stereo not given)

1. 7110 nM
2. 4.12 nM
3. 2690 nM

* * *

- Test system: B cell line, TNFa signaling counterscreen reporter
- testDescription: TNFa signaling inhibitors in B cell line, dose response, counter-screen (AID 1259334); in the data active = AC50 below about 11 µM;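 further: cells stimulated with TNFa after compound preincubation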
Your response should consist of one outcome taken from 1.0 = active, 0.0 = inactive

* Oc1cc2c(cc1C(c1ccc(Br)cc1)N1CCCC1)OCO2 (centres undefined) | 1.0

Could you kindly confirm the outcome this assay logged for `COc1ccc2c3c([nH]c2c1)[C@H](CO)N(C(=O)Nc1ccc(F)cc1)CC31CCN(C(=O)c2ccccc2F)CC1` ?
1.0

Field: outcome | Entry: `N#C[C@@H]1[C@H](c2ccc(C#Cc3ccccc3F)cc2)[C@@H](CO)N1C(=O)c1cccnc1`
1.0

Give the logged outcome of this assay for the following molecule: CSc1ccc2c(c1)N(CCC1CCCCN1C)c1ccccc1S2 (centres undefined)
1.0

* * *

- System: B cell line, TNFa signaling counterscreen reporter
- testDescription: TNFa signaling inhibitors in B cell line, dose response, counter-screen (AID 1259334);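 further: cells stimulated with TNFa after compound preincubation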
The source made the active and inactive calls. Cut-off read from the data, not from the text of the source: active = AC50 below about 11 µM.
Log the outcome using a class from active, inactive

Worked examples, 3 compounds total:
• CC1=C(SCCO)C(=O)c2ccccc2C1=O = active
• COC(=O)c1nn(-c2ccc(-c3ccccc3)cc2)cc1O = active
• CC1OC(OC2CC(O)C3(CO)C4C(O)CC5(C)C(C6=CC(=O)OC6)CCC5(O)C4CCC3(O)C2)C(O)C(O)C1O (centres undefined) = active

What was the test verdict on `c1ccc2nc(-c3nc4ccccc4o3)ccc2c1` ?
active

Could you kindly confirm the outcome this assay logged for O=C(C1CC1)N1C[C@@H]2N[C@H](C1)C2c1ccc(-c2cccc(F)c2)cc1 (some centres undefined) ?
active

Hi, do you know how `COc1ccc(S(=O)(=O)N(C)C[C@H]2Oc3ccc(NC(=O)Nc4ccc(C(F)(F)F)cc4)cc3C(=O)N([C@@H](C)CO)C[C@@H]2C)cc1` came out in this test?
inactive

Recorded call for `C[C@@H]1CN([C@@H](C)CO)C(=O)c2ccccc2-c2ccccc2CO[C@H]1CN(C)Cc1ccccc1C(F)(F)F` ?
active

Can you look up the reported call for `CCCC(=O)NC1=C(Cl)C(=O)c2ccccc2C1=O` for me?
active

I'd appreciate the recorded outcome for CC(=O)OC1CC2(O)C3CCC4CC(O)CCC4(C)C3CCC2(C)C1C1=CC(=O)OC1 (centres undefined) from this test.
active

// return assay outcome for `Cc1ccc(S(=O)(=O)C=CS(=O)(=O)c2ccc(C)cc2)cc1`
active

// return assay outcome for `C[C@@H]1CCCCO[C@@H](CN(C)Cc2ccc(Cl)c(Cl)c2)[C@H](C)CN([C@H](C)CO)C(=O)c2cc(NS(=O)(=O)c3cccs3)ccc2O1`
active

// return assay outcome for `Cc1c(CCOC(=O)CC23CC4CC(CC(C)(C4)C2)C3)sc[n+]1CC(=O)c1ccccc1`
active

Hi, do you know how Cc1cc(C)cc(N2C(=O)CC(Sc3nnnn3-c3ccccc3)C2=O)c1 (centres undefined) came out in this test?
active

# outcome recorded in this test, key = CC[C@H]1CN2CCc3cc(OC)c(OC)cc3C2C[C@@H]1CC1NCCc2cc(OC)c(OC)cc21 (some centres undefined)
active

Per the assay record, what outcome was assigned to `COc1ccc(C(=O)/C=C/C(=O)N(CC(=O)NC2CCCCC2)Cc2ccc(F)cc2)c(O)c1` ?
active

Record request — test call for `Cc1ccccc1C(=O)N1CCC(C(=O)Nc2nc3ccc(F)cc3s2)CC1`
active

Identify the outcome logged in this assay for the compound shown: CC(NCC(O)COCCC12CC3CC(CC(C3)C1)C2)c1ccccc1 (centres undefined)
active

Entry `C[C@H]1CN([C@@H](C)CO)C(=O)c2c(c3ccccc3n2C)-c2ccccc2CO[C@@H]1CN(C)C(=O)Nc1cccc(C(F)(F)F)c1` : call = ?
active

Please indicate how the test categorized c1ccc2c(c1)OCC(C1=NCCN1)O2 (centres undefined) .
inactive
